Values from the supplement of paper PMC6757056

B1: library; a variant is named by its letters at N, in order (parent)
chain: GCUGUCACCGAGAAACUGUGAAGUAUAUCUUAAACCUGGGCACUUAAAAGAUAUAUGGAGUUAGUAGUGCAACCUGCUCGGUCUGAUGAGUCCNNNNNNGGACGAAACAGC

Variants of: B1
test: normalized RNA/DNA level with ligand (relative to sTRSVctl = 100) (log10 (% of sTRSVctl)); HEK293T; ligand: cyclic di-GMP (c-di-GMP-II aptamer); ligand concentration (+) RNA-Seq: 1 mM; higher = less ribozyme self-cleavage, higher mRNA level
experimental_context: reporter: mCherry (pCS4076), ligand present: yes
Each record here notes measured normalized RNA/DNA level with ligand (log10).

Check out these entries, answers already filled in.
variant_description: AACGCC
result_value: 1.9

variant_description: GGUUCG
result_value: 1.88

variant_description: CGAAUC
result_value: 1.78

variant_description: CGUGAC
result_value: 1.74

variant_description: UCUACG
result_value: 1.89

variant_description: ACAACU
result_value: 1.76

variant_description: AAAAAU
result_value: 1.72

variant_description: CAGAUA
result_value: 1.43

So what does the record say about normalized RNA/DNA level with ligand (log10) for `UUGGAA` ?
1.78

Now this one: `ACGGCU`
1.75

Another variant to look at: `CCUGAC`
1.78
